Here's what we have: pKi numbers for Mu-type opioid receptor (Homo sapiens, UniProt P35372).
pKi: −log10 of the molar value.
VALUE TYPE: pKi

>>> measured("CC[C@@H]1CN2CC[C@]3(C(=O)Nc4cccc(OC)c43)[C@@H]2C[C@@H]1/C(=C\\OC)C(=O)OC")
5.77
>>> measured("CC[C@@H]1C[N+]2([O-])CCc3c([nH]c4cccc(OC)c34)[C@H]2C[C@@H]1/C(=C\\OC)C(=O)OC (stereo partly specified)")
6.26
>>> measured("CC[C@@H]1CN2CC[C@@]3(C(=O)Nc4ccccc43)[C@@H]2C[C@@H]1/C(=C\\OC)C(=O)OC [CORYNOXINE]")
7.79
>>> measured("CC[C@@H]1CN2CC[C@]3(C(=O)Nc4ccccc43)[C@@H]2C[C@@H]1/C(=C\\OC)C(=O)OC [CORYNOXINE B]")
6.96
>>> measured("C=C[C@H]1CN2CCc3c([nH]c4cccc(OC)c34)[C@@H]2C[C@@H]1/C(=C\\OC)C(=O)OC")
6.39
>>> measured("CC[C@@H]1CN2CC[C@@]3(C(=O)Nc4cccc(O)c43)[C@H]2C[C@@H]1/C(=C\\OC)C(=O)OC")
6.10

* * *

target: Kappa-type opioid receptor (Homo sapiens) (UniProt P41145); test: Displacement of [3H]U69593 from human recombinant kappa opioid receptor expressed in Chem-1 (RBL) cells at 100 nM incubated for 60 mins by radiometric scintillation analysis; assay type: cell-based
Sequence (P41145 whole entry): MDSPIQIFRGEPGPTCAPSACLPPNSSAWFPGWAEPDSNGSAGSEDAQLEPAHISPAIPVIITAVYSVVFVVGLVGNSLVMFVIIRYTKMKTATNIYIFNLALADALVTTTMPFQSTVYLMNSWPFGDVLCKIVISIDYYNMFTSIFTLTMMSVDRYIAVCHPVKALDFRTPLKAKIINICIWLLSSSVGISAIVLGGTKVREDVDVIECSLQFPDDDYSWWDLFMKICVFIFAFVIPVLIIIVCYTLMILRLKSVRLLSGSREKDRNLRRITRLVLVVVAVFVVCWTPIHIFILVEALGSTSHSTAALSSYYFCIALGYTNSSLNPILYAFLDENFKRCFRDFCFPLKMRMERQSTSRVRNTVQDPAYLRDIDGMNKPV
VALUE TYPE: Activity (%)

>>> measured("CC[C@@H]1CN2CC[C@@]3(C(=O)Nc4cccc(O)c43)[C@H]2C[C@@H]1/C(=C\\OC)C(=O)OC")
0.1
>>> measured("CC[C@@H]1C[N+]2([O-])CCc3c([nH]c4cccc(OC)c34)[C@H]2C[C@@H]1/C(=C\\OC)C(=O)OC (stereo not given in full)")
6.6
>>> measured("CC[C@@H]1CN2CC[C@@]3(C(=O)Nc4ccccc43)[C@@H]2C[C@@H]1/C(=C\\OC)C(=O)OC [CORYNOXINE]")
3.8
>>> measured("CC[C@@H]1CN2CC[C@]3(C(=O)Nc4ccccc43)[C@@H]2C[C@@H]1/C(=C\\OC)C(=O)OC [CORYNOXINE B]")
4.5
>>> measured("CC[C@@H]1CN2CC[C@]3(C(=O)Nc4cccc(OC)c43)[C@@H]2C[C@@H]1/C(=C\\OC)C(=O)OC")
5

* * *

As shown below, each of these compounds has a reported Activity value.
target: Delta-type opioid receptor (Homo sapiens) (UniProt P41143); assay: Displacement of [3H]DADLE from human recombinant delta opioid receptor expressed in Chem-1 (RBL) cells at 10000 nM incubated for 60 mins by radiometric scintillation analysis; type: cell-based
Sequence (P41143 whole entry): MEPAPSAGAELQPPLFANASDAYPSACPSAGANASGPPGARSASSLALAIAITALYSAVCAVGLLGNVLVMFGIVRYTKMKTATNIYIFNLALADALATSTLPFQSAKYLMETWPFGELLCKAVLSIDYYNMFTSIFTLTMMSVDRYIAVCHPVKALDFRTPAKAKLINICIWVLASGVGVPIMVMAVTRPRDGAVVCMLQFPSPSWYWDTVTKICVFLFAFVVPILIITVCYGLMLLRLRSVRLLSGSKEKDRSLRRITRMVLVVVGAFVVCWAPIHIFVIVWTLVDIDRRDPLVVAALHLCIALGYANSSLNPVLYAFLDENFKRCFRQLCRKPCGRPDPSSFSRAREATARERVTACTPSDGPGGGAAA
VALUE TYPE: Activity (%)

>>> measured("CC[C@@H]1CN2CC[C@@]3(C(=O)Nc4ccccc43)[C@@H]2C[C@@H]1/C(=C\\OC)C(=O)OC")
73.8
>>> measured("CC[C@@H]1CN2CC[C@]3(C(=O)Nc4cccc(OC)c43)[C@@H]2C[C@@H]1/C(=C\\OC)C(=O)OC")
87.1
>>> measured("CC[C@@H]1CN2CC[C@@]3(C(=O)Nc4cccc(O)c43)[C@H]2C[C@@H]1/C(=C\\OC)C(=O)OC")
27.1
>>> measured("CC[C@@H]1CN2CC[C@]3(C(=O)Nc4ccccc43)[C@@H]2C[C@@H]1/C(=C\\OC)C(=O)OC")
65.5
>>> measured("CC[C@@H]1C[N+]2([O-])CCc3c([nH]c4cccc(OC)c34)[C@H]2C[C@@H]1/C(=C\\OC)C(=O)OC (stereo not given in full)")
53.5

* * *

As shown below, each of these compounds has a reported Activity value.
biological target: Delta-type opioid receptor (Homo sapiens) (UniProt P41143); test: Displacement of [3H]DADLE from human recombinant delta opioid receptor expressed in Chem-1 (RBL) cells at 100 nM incubated for 60 mins by radiometric scintillation analysis; assay type: cell-based
VALUE TYPE: Activity (%)

>>> measured("CC[C@@H]1C[N+]2([O-])CCc3c([nH]c4cccc(OC)c34)[C@H]2C[C@@H]1/C(=C\\OC)C(=O)OC (stereo not given in full)")
5.1
>>> measured("CC[C@@H]1CN2CC[C@]3(C(=O)Nc4ccccc43)[C@@H]2C[C@@H]1/C(=C\\OC)C(=O)OC")
-4.4
>>> measured("CC[C@@H]1CN2CC[C@]3(C(=O)Nc4cccc(OC)c43)[C@@H]2C[C@@H]1/C(=C\\OC)C(=O)OC")
10.4
>>> measured("CC[C@@H]1CN2CC[C@@]3(C(=O)Nc4ccccc43)[C@@H]2C[C@@H]1/C(=C\\OC)C(=O)OC")
-3.9
>>> measured("CC[C@@H]1CN2CC[C@@]3(C(=O)Nc4cccc(O)c43)[C@H]2C[C@@H]1/C(=C\\OC)C(=O)OC")
0

* * *

target: UniProt P41145; assay: Displacement of [3H]U69593 from human recombinant kappa opioid receptor expressed in Chem-1 (RBL) cells at 10000 nM incubated for 60 mins by radiometric scintillation analysis; assay type: cell-based
As shown below, each of these compounds has a reported Activity value.
VALUE TYPE: Activity (%)

>>> measured("CC[C@@H]1CN2CC[C@]3(C(=O)Nc4cccc(OC)c43)[C@@H]2C[C@@H]1/C(=C\\OC)C(=O)OC")
23
>>> measured("CC[C@@H]1CN2CC[C@]3(C(=O)Nc4ccccc43)[C@@H]2C[C@@H]1/C(=C\\OC)C(=O)OC [CORYNOXINE B]")
51.8
>>> measured("CC[C@@H]1CN2CC[C@@]3(C(=O)Nc4ccccc43)[C@@H]2C[C@@H]1/C(=C\\OC)C(=O)OC [CORYNOXINE]")
75.3
>>> measured("CC[C@@H]1C[N+]2([O-])CCc3c([nH]c4cccc(OC)c34)[C@H]2C[C@@H]1/C(=C\\OC)C(=O)OC (stereo not given in full)")
80.9
>>> measured("CC[C@@H]1CN2CC[C@@]3(C(=O)Nc4cccc(O)c43)[C@H]2C[C@@H]1/C(=C\\OC)C(=O)OC")
37.3

* * *

target: Mu-type opioid receptor (Homo sapiens, UniProt P35372); assay: Displacement of [3H]DAMGO from human recombinant mu opioid receptor expressed in HEK293 cells at 10000 nM incubated for 120 mins by radiometric scintillation analysis; type: cell-based
Sequence (P35372 whole entry): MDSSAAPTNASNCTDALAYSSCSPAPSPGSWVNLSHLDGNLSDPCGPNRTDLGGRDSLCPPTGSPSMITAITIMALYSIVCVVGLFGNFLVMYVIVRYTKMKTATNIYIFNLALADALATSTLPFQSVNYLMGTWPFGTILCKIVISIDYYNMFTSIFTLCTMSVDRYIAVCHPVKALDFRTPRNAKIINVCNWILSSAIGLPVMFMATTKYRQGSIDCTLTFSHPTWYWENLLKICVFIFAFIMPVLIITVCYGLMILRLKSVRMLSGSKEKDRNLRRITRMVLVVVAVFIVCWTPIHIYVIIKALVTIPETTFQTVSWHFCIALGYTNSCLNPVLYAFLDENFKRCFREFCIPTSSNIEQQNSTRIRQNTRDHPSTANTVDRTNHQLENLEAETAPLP
Each entry gets -1 if its Activity stays under 90%, and 1 if its Activity is 90% or above.

>>> group_label("CC[C@@H]1CN2CC[C@]3(C(=O)Nc4ccccc43)[C@@H]2C[C@@H]1/C(=C\\OC)C(=O)OC")
1
>>> group_label("CC[C@@H]1CN2CC[C@@]3(C(=O)Nc4ccccc43)[C@@H]2C[C@@H]1/C(=C\\OC)C(=O)OC")
1
>>> group_label("CC[C@@H]1C[N+]2([O-])CCc3c([nH]c4cccc(OC)c34)[C@H]2C[C@@H]1/C(=C\\OC)C(=O)OC (stereo not given in full)")
-1
>>> group_label("CC[C@@H]1CN2CC[C@@]3(C(=O)Nc4cccc(O)c43)[C@H]2C[C@@H]1/C(=C\\OC)C(=O)OC")
-1
>>> group_label("CC[C@@H]1CN2CC[C@]3(C(=O)Nc4cccc(OC)c43)[C@@H]2C[C@@H]1/C(=C\\OC)C(=O)OC")
-1

* * *

As shown below, each of these compounds has a reported Activity value.
target: Mu-type opioid receptor (Homo sapiens, UniProt P35372); test: Displacement of [3H]DAMGO from human recombinant mu opioid receptor expressed in HEK293 cells at 100 nM incubated for 120 mins by radiometric scintillation analysis; assay type: cell-based
VALUE TYPE: Activity (%)

>>> measured("CC[C@@H]1CN2CC[C@@]3(C(=O)Nc4ccccc43)[C@@H]2C[C@@H]1/C(=C\\OC)C(=O)OC [CORYNOXINE]")
80.1
>>> measured("CC[C@@H]1CN2CC[C@]3(C(=O)Nc4ccccc43)[C@@H]2C[C@@H]1/C(=C\\OC)C(=O)OC [CORYNOXINE B]")
45.4
>>> measured("CC[C@@H]1CN2CC[C@@]3(C(=O)Nc4cccc(O)c43)[C@H]2C[C@@H]1/C(=C\\OC)C(=O)OC")
13.1
>>> measured("CC[C@@H]1CN2CC[C@]3(C(=O)Nc4cccc(OC)c43)[C@@H]2C[C@@H]1/C(=C\\OC)C(=O)OC")
7.3
>>> measured("CC[C@@H]1C[N+]2([O-])CCc3c([nH]c4cccc(OC)c34)[C@H]2C[C@@H]1/C(=C\\OC)C(=O)OC (stereo not given in full)")
10.5
